B1: library; numbered along this chain (parent)
chain: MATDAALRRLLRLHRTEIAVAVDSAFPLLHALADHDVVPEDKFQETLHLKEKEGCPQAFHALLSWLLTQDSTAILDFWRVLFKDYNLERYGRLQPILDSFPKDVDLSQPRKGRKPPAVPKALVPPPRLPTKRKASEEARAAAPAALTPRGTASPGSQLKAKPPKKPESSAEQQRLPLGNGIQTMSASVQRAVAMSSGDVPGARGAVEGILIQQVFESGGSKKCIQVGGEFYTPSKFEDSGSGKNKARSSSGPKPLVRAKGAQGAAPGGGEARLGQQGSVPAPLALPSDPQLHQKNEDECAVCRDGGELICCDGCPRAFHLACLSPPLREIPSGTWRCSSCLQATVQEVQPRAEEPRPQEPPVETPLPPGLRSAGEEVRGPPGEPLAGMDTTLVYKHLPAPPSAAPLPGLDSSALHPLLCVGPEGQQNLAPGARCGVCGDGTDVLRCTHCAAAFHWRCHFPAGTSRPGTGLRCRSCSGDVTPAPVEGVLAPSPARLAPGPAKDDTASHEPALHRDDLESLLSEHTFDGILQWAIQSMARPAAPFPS

variants of: B1; test: AIRE transcriptional activation functional score (insulin promoter-GFP; nonsense median 0, synonymous median 1) (normalised score); higher = higher AIRE activity (more reporter activation); details: with insulin promoter-GFP reporter in HEK293
value-type: AIRE transcriptional activation functional score

mutant-label	reported-value
V362G	1.02
R328F	0.907
L28D	-0.558
A452D	0.712
R139M	1.04
G180L	0.0432
C311L	0.839
A461R	0.878
L488E	0.182
S332Q	0.542
P497Q	1.02
T334P	0.902
L67W	0.0659
T130A	1.78
R247G	0.529
K294W	-0.487
D514S	0.341
R110L	1.44
P401I	0.809
D70R	0.35
W65Y	-0.365
K161S	0.458
